Provenance of the data: PubChem BioAssay (NCI)

- System: HCT-15 colon
- protocol.summary: NCI tumour cell line growth inhibition, 48 h; in the data active = GI50 below about 0.43 µM; inactive = the rest
Labels: TRUE for active, FALSE for inactive

[[record]]
molecule = "CN(C)CCCNC(=O)c1ccc2oc3cc4ccccc4c(=O)n3c2c1"
category = "FALSE"

[[record]]
molecule = "COc1cccc(Cn2c(-c3nonc3N)nc3ccccc32)c1"
category = "TRUE"

[[record]]
molecule = "COc1ccccc1/C=C/C(=O)c1c(O)cc2occc2c1OC"
category = "FALSE"

[[record]]
molecule = "Cc1cc(C(=O)Nc2nc3cccc(Cl)c3n2[C@@H]2CCCCN(C(=O)/C=C/CN(C)C)C2)ccn1"
category = "FALSE"

[[record]]
molecule = "COC(=O)[C@@]1(Cc2ccccc2)[C@H]2c3cc(C(=O)N4CCCC4)n(Cc4ccc(OC)c(OC)c4)c3C[C@H]2CN1C(=O)c1ccccc1"
category = "FALSE"

[[record]]
molecule = "NC(=O)C1c2ccccc2C=Cc2ccccc21"
category = "FALSE"

[[record]]
molecule = "NCCCCCCCCn1c2c(c3ccccc3c1=O)C(=O)c1ccccc1-2"
category = "FALSE"

[[record]]
molecule = "CCN1C(=O)N(CC)C2C1NN=c1s/c(=C\\c3ccccc3F)c(=O)n12 (stereo not given)"
category = "TRUE"

[[record]]
molecule = "COC(=O)[C@H]1C(=O)[C@@]2(C)[C@H]([C@H](OC(=O)c3ccccc3)[C@]3(O)C[C@H](OC(=O)[C@H](O)[C@@H](NC(=O)c4ccc(F)cc4)c4ccccc4)C(C)=C1C3(C)C)[C@]1(OC(C)=O)CO[C@@H]1C[C@@H]2O"
category = "FALSE"

[[record]]
molecule = "Cc1nc2ccccn2c1NC(=O)NNC(=S)Nc1ccc(Br)cc1"
category = "FALSE"

